Value source: PubChem BioAssay (NCI)

System: NCI-H226 lung
Experiment: NCI tumour cell line growth inhibition, 48 h; in the data active means GI50 below about 0.43 µM; inactive means the rest
Return exactly one item of YES for active, NO for inactive

O=S(=O)(Nc1ccc(Cl)cc1Cl)c1ccc(-c2cnc(C3CC3)o2)cc1; NO
CN(C)CCC(=O)C(=Cc1ccc(O)cc1)C(=O)CCN(C)C; NO
O=[P@@]1(c2ccccc2)O[C@H](COCc2ccccc2)[C@@H](OCc2ccccc2)[C@H](OCc2ccccc2)[C@H]1NCc1ccccc1; NO
Clc1nc(Cl)nc(Nc2cccc3ccccc23)n1; NO
Cn1cc(-c2csc(-c3c[nH]c4ccc(Br)cc34)n2)c2cnccc21; NO
C[C@H](Nc1cc(Cl)nc2c1cnn2[C@@H]1O[C@H](COP(=O)(O)CP(=O)(O)O)[C@@H](O)[C@H]1O)c1ccccc1F; NO
COC(=O)c1cc2c(s1)-c1nccc3c1c(nc1ccccc13)C2=O; NO
COc1ccc(-c2nsc3c2NC(=O)CC3c2cccc(OC)c2)cc1 (stereo not given); NO
Nc1c(C(=O)c2ccccc2)cnn1-c1ccc(F)cc1; NO
Oc1ccc(Nc2c3ccccc3nc3occ(Cl)c23)cc1; NO

q: Check the results log: what was the call for COC(=O)C1=CN(CC2=CC(=O)C(C)=CC2=O)C=C(C(=O)OC)C1c1cccc(OC)c1 ?
a: NO

q: Check the results log: what was the call for Cn1c(Nc2ccc(C(F)(F)F)cc2)nc2cc(Oc3ccnc(-c4ncc(C(F)(F)F)[nH]4)c3)ccc21 ?
a: NO

q: Check the results log: what was the call for COc1cccc2c1C(=O)c1c(O)c3c(c(O)c1C2=O)C[C@@](O)(/C(C)=N/NC(=O)c1ccc(Cl)cc1)C[C@@H]3OC1CC(N)C(O)C(C)O1 (stereo not given in full) ?
a: YES

q: Check the results log: what was the call for C[C@@]12CCC[C@@](C)(C(=O)O)C1CC[C@]13CC(=O)[C@](CO)(C1)[C@@H](O)CC32 (stereo not given in full) ?
a: NO

q: Check the results log: what was the call for O=C(NNc1ccccc1)C(=O)NNc1ccccc1 ?
a: NO

----------
System: PC-3 prostate
Test: NCI tumour cell line growth inhibition, 48 h
Form field: TGI (one value per entry).

These solved cases illustrate the format of a correct answer.
COC(=O)NC(C(F)(F)F)(C(F)(F)F)P1(=O)OCCCO1; > 100 µM
O=c1oc2c/c(=C\c3ccc([N+](=O)[O-])cc3)c(=O)c3cccc1c3-2; > 100 µM
C[C@@]12CCC[C@@](C)(C(=O)O)C1CC[C@]13CC(=O)[C@](CO)(C1)[C@@H](O)CC32 (stereo partly drawn); > 100 µM

Just so you know, measured TGI for COc1cc2c(cc1OC)C1C[C@]3(CCN1CC2)C(=O)N(c1ccccc1)C(=O)N3C(C)=O (stereo partly drawn) came out at > 200 µM

Just so you know, measured TGI for COC1(OC)CCCc2c1no[n+]2[O-] came out at > 100 µM

Just so you know, measured TGI for CC1(C)OC[C@@H]([C@H](O)C2C=CC(=O)S2)O1 (stereo partly drawn) came out at > 100 µM

Just so you know, measured TGI for CC1CN=C(N(C(=O)Nc2ccc(Cl)c(Cl)c2)c2ccccc2)S1 (stereo not drawn) came out at > 100 µM

Just so you know, measured TGI for Cn1c(=O)c(Oc2ccc(F)cc2)cc2cnc(NC3CCOCC3)nc21 came out at > 25 µM

----------
Test system: EKVX NSCLC
Assay: NCI tumour cell line growth inhibition, 48 h; in the data active = GI50 below about 0.43 µM; inactive = the rest
Return exactly one item of active, inactive

CSc1ccccc1C#C/C=C\C#Cc1ccccc1N; inactive

q: Check the results log: what was the call for O=C1c2cccc3cccc(c23)C(=O)N1CCCCCN1CCN(CCCCCOc2ccc(-c3nc4ccc(N5CCOCC5)cc4[nH]3)cc2)CC1 ?
a: inactive

q: Check the results log: what was the call for O=S(=O)(Nc1ccc(Cl)cc1Cl)c1ccc(-c2cnc(C3CC3)o2)cc1 ?
a: inactive

q: Check the results log: what was the call for CCOC(=O)c1c(-c2ccc(OC)cc2)c(C#N)c2c(C#N)c(N)nn2c1N ?
a: inactive

----------
Form field: TGI (one value per entry).
Tested on: SNB-75 CNS
Test: NCI tumour cell line growth inhibition, 48 h

These solved cases illustrate the format of a correct answer.
COC(=O)NC(C(F)(F)F)(C(F)(F)F)P1(=O)OCCCO1; > 100 µM
CC(=O)O[C@H]1CC[C@@]2(C)C(=CC[C@H]3[C@@H]4C/C(=C\c5ccc(N(C)C)cc5)[C@H](OC(C)=O)[C@@]4(C)CC[C@@H]32)C1; > 100 µM

Lab entry: SNB-75 CNS assay, molecule CC12CCC3c4ccc(O)cc4CCC3C1C/C(=N\O)C2O (stereo not drawn) , TGI = > 100 µM

----------
Form field: TGI (one value per entry).
System: XF 498 CNS
Test: NCI tumour cell line growth inhibition, 48 h

These solved cases illustrate the format of a correct answer.
CN(CCN(C)C(=O)CCn1cc(F)c(=O)[nH]c1=O)C(=O)CCn1cc(F)c(=O)[nH]c1=O; > 100 µM
COc1cccc(C2CC23C(=O)NC(=O)NC3=O)c1 (centres undefined); > 100 µM

Just so you know, measured TGI for C=C(C)C1CCC2(C)CC1c1c(c(C)cc3c1[nH]c1ccccc13)O2 (centres undefined) came out at > 25 µM

Just so you know, measured TGI for O=[N+]([O-])c1ccc(-c2cnc3ccccn23)cc1 came out at > 100 µM

----------
Form field: TGI (one value per entry).
Tested on: SNB-78 CNS
Assay: NCI tumour cell line growth inhibition, 48 h

These solved cases illustrate the format of a correct answer.
C[Si](C)(C)/C(Br)=C\CCN1C(=O)CCC1=O; > 100 µM
COC1CCCCN1C(=O)c1ccccc1 (stereo not drawn); > 25.3 µM

Moving on to another compound below.
Just so you know, measured TGI for CCN(CC)CCSc1c2ccccc2nc2c(OC)ccc(OC)c12 came out at 22.3 µM

----------
Test system: SN12C renal
Experiment: NCI tumour cell line growth inhibition, 48 h
Measured metric: TGI

These solved cases illustrate the format of a correct answer.
O=C(Nc1ccc([N+](=O)[O-])cc1[N+](=O)[O-])C(=O)C(C(=O)c1ccc2ccccc2c1)C1OC(=O)c2ccccc21 (stereo not given); 54.7 µM
CSc1ccsc1-c1sc(-c2cc(SC)c(-c3sc(-c4cc(SC)c(-c5sccc5SC)s4)cc3SC)s2)cc1SC; > 100 µM
O=C1NC(N/N=C\C(O)C(O)C(O)C(O)CO)=N/C1=C/c1ccc(Cl)cc1 (stereo not given); > 100 µM
COc1ccc(C2=C3SC=c4ccccc4=C3ON=C2c2ccccc2)cc1; > 100 µM
CSc1nc(NC2OC(COC(C)=O)C(OC(C)=O)C(OC(C)=O)C2OC(C)=O)c(N=CC=Nc2c(NC3OC(COC(C)=O)C(OC(C)=O)C(OC(C)=O)C3OC(C)=O)nc(SC)n(C)c2=O)c(=O)n1C (stereo not given); > 100 µM
O=[N+]([O-])c1ccc(-c2cnc3ccccn23)cc1; > 100 µM
C=C1C(=O)OC2CC(C)C(C(O)CC(C)O)=CCC12 (stereo not given); 33.1 µM
Cc1ccc2c(C3C(C#N)=C(N)Oc4cc5ccccc5cc43)cc(=O)oc2c1 (stereo not given); > 100 µM

Lab entry: SN12C renal assay, compound O=C(/C=C/C=C/c1ccccc1)c1ccccc1 , TGI = 29.7 µM

Lab entry: SN12C renal assay, compound CC(=O)O[C@H]1CC[C@@]2(C)C(=CC[C@H]3[C@@H]4C/C(=C\c5ccc(N(C)C)cc5)[C@H](OC(C)=O)[C@@]4(C)CC[C@@H]32)C1 , TGI = 37.9 µM

Lab entry: SN12C renal assay, compound CC1CN=C(N(C(=O)Nc2ccc(Cl)c(Cl)c2)c2ccccc2)S1 (stereo not given) , TGI = > 100 µM

Lab entry: SN12C renal assay, compound O=c1c2ncn(C3CCCO3)c2n(-c2ccccc2)c(=S)n1-c1ccccc1 (stereo not given) , TGI = > 100 µM

Lab entry: SN12C renal assay, compound C=CCc1ccc(O)c(-c2ccc(O)c(CC=C)c2)c1 , TGI = 29.6 µM

Lab entry: SN12C renal assay, compound CC(C(=O)O)c1cccc(Oc2ccccc2)c1 (stereo not given) , TGI = > 100 µM

Lab entry: SN12C renal assay, compound COC(=O)C1=CN(CC2=CC(=O)C(C)=CC2=O)C=C(C(=O)OC)C1c1cccc(OC)c1 , TGI = > 60.5 µM

Lab entry: SN12C renal assay, compound COC1=C(Br)[C@H](O)[C@@]2(C=C1Br)CC(C(=O)NCCCOc1c(Br)cc(C(O)CNC(C)=O)cc1Br)=NO2 (stereo not given in full) , TGI = > 10 µM

Lab entry: SN12C renal assay, compound CN1C(=O)C2CCCC(=O)N2c2cccnc21 (stereo not given) , TGI = > 100 µM

Lab entry: SN12C renal assay, compound Cc1ccc(Cl)c2c(=O)c3ccc(N)cc3sc12 , TGI = 32.9 µM

Lab entry: SN12C renal assay, compound O=C1CCC(=O)c2c1c(O)c1ccncc1c2O , TGI = 31.6 µM

Lab entry: SN12C renal assay, compound CS/C(=C(\S)c1ccccc1)c1ccccc1 , TGI = > 100 µM

Lab entry: SN12C renal assay, compound O=P1(c2ccccc2)Nc2ccccc2SSc2ccccc2N1 , TGI = 32.8 µM

Lab entry: SN12C renal assay, compound Cc1cc(C(F)(F)F)cc(-n2nc(NS(=O)(=O)c3cc(C)c(Cl)cc3S)nc2N)n1 , TGI = > 100 µM

Lab entry: SN12C renal assay, compound O=C1c2ccccc2C(=O)c2c1nc1ccccc1c2-c1cncc(-c2c3c(nc4ccccc24)C(=O)c2ccccc2C3=O)c1 , TGI = 27.9 µM

Lab entry: SN12C renal assay, compound CC1(C)OC2C(O)C(CO)OC2(C(F)F)O1 (stereo not given) , TGI = > 100 µM
